# Test system: CEM cells HIV-1 protection, formazan growth assay
# ASSAY OVERVIEW: NCI AIDS Antiviral Assay;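 active = compounds giving half or more protection of infected cells from virus-caused growth loss, again on retest; inactive = the rest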
Thanks in advance; please answer with one of these: yes for active, no for inactive

Known results for compounds:
Cc1ccnc2c1ccc1nc3ccccc3n12: no
CCOC(=O)c1ccc(NC(=O)Nc2ccc(Cl)cn2)cc1: no
CC(NC(=O)C(N)CCC(=O)O)C(=O)NCP(=O)(O)O (centres undefined): no
Cc1ccccc1NC(=O)CC(=O)NNCC(=O)Nc1nnc(-c2ccccc2)s1: no
OC(c1cc2ccccc2[nH]1)C(O)(c1cc2ccccc2[nH]1)c1cc2ccccc2[nH]1 (centres undefined): no
CN(C)/N=C1\CC(c2ccccc2)C(C#N)(C#N)C1(C#N)C#N (centres undefined): no

Could you kindly confirm the outcome this assay logged for `CN(C(=O)Cc1ccccc1)n1cnn(CC(=O)OC(C)(C)C)c1=S` ?
no

Could you kindly confirm the outcome this assay logged for CC(C)N(C(=O)C12C3C4C1C1C2C3C41C#N)C(C)C (centres undefined) ?
no

Could you kindly confirm the outcome this assay logged for CCCOc1csc([C@H]2CCC3[C@@H]4CC=C5C[C@@H](O)CC[C@]5(C)C4CC[C@@]32C)n1 (some centres undefined) ?
no

Could you kindly confirm the outcome this assay logged for `CCCCCC=C(c1cc(Br)cc(C(=O)OC)c1OC)c1cc(Br)cc(C(=O)OC)c1OC` ?
no

Could you kindly confirm the outcome this assay logged for `CN(C)CCCNC(=O)c1nc(NC(=O)c2nc(NC(=O)c3nc(NC(=O)/C=C/C(=O)Nc4cn(C)c(C(=O)Nc5cn(C)c(C(=O)Nc6cn(C)c(C(=O)NCCCN(C)C)n6)n5)n4)cn3C)cn2C)cn1C` ?
no

Could you kindly confirm the outcome this assay logged for `CC(=O)NNc1nc(C)c(C(=O)NNC(=O)C(=O)Nc2c(C)cccc2C(C)C)s1` ?
no

Could you kindly confirm the outcome this assay logged for `Cn1cc(NC(=O)Nc2cc(C(=O)Nc3cc(C(=O)Nc4ccc5c(S(=O)(=O)O)cccc5c4S(=O)(=O)O)n(C)c3)n(C)c2)cc1C(=O)Nc1cc(C(=O)Nc2ccc3c(S(=O)(=O)O)cccc3c2S(=O)(=O)O)n(C)c1` ?
yes

Could you kindly confirm the outcome this assay logged for `CN1CCC2(CC1)SSC1(CCN(C)CC1)S2` ?
no

###

# System: CEM cells HIV-1 protection, formazan growth assay
# ASSAY OVERVIEW: NCI AIDS Antiviral Assay
# MEASUREMENT SETUP: measured here: growth of uninfected CEM cells
Item-by-item account of IC50

O=S(Cc1cnc2ccccc2c1)c1nc2ccccc2nc1-c1cccs1 (stereo not given): > 6.76 µM
CN(C)CC(O)CNC(=O)Nc1ccccc1 (stereo not given): > 200 µM
O=C1CN(CCN2CCOCC2)CC(=O)N2CCCCN12: > 200 µM
CN=C(NC#N)N(Cc1ccccc1)Cc1ccccc1: > 100 µM

Give reported IC50 value for `COc1c(Cl)cc(Cc2cc(Cl)c(OC)c([N+](=O)[O-])c2)cc1[N+](=O)[O-]`
> 200 µM

###

# Test system: CEM cells HIV-1 protection, formazan growth assay
# ASSAY OVERVIEW: NCI AIDS Antiviral Assay;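 active means compounds giving half or more protection of infected cells from virus-caused growth loss, again on retest; inactive means the rest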
Thanks in advance; please answer with one of these: YES = active, NO = inactive

Known results for compounds:
O=C1c2cccc3cc([N+](=O)[O-])cc(c23)C(=O)N1CCN1CCCC1: NO
CCC1C(c2cc(OC)c(OC)c(OC)c2)c2cc3c(cc2OC1N1CCCC1)OCO3 (stereo unspecified): NO
COc1cc(OC)cc(C(=O)CC(=O)c2cc(OC)cc(OC)c2)c1: NO
COc1cc(N=Nc2ccccc2)cc(/C=N/NC(N)=S)c1[O-].[CH2-]/[N+](=C\c1cc(N=Nc2ccccc2)cc(OC)c1[O-])NC(N)=S.[O]=[Mo+2]=[O].[O]=[Mo]=[O]: NO
COc1cccc(N=N/C(=N\NC(=O)c2cc(Br)ccc2O)c2ccc(N(CCC#N)CCC#N)cc2OC)c1: NO

Could you kindly confirm the outcome this assay logged for `CC(=O)Oc1ccc(/C=C/C(=O)O[C@@H](C(=O)O)[C@@H](OC(=O)/C=C/c2ccc(OC(C)=O)c(OC(C)=O)c2)C(=O)O)cc1OC(C)=O` ?
YES

Could you kindly confirm the outcome this assay logged for `O=C(O)Cc1[nH]c(=O)[nH]c(=O)c1CCl` ?
NO

Could you kindly confirm the outcome this assay logged for `S=C(N/N=C(\c1ccccc1)c1ccccn1)NC1CCCCC1` ?
NO

Could you kindly confirm the outcome this assay logged for COc1ccc(C(=O)CC2(O)C(=O)N(CN3CCOCC3)c3ccc(Br)cc32)cc1 (stereo unspecified) ?
NO

Could you kindly confirm the outcome this assay logged for `CN(c1ccccc1)S(=O)(=O)c1cccc([N+](=O)[O-])c1` ?
YES

Could you kindly confirm the outcome this assay logged for `COc1ccc(/C=N/Nc2nnc3c4ccccc4c4ncccc4c3n2)cc1` ?
YES

###

# Tested on: CEM cells HIV-1 protection, formazan growth assay
# ASSAY OVERVIEW: NCI AIDS Antiviral Assay
# MEASUREMENT SETUP: measured here: growth of uninfected CEM cells
METRIC: IC50

Reference set, count: 5
Sc1cccc2c(S)cccc12: > 200 µM
OCC(O)C1[O][Sb][O]C1C(O)CO (stereo unspecified): > 200 µM
NC(=O)C12CC3CC(CC(F)(C3)C1)C2: > 1260 µM
CN1C/C(=C\c2cccs2)c2[nH]c(=O)c(C#N)c(-c3cccs3)c2C1: > 200 µM
[O-]c1c2c(nn1-c1ccc(Cl)cc1)c1ccccc1c[n+]2Cc1ccccc1: > 5.13 µM

Next item in the queue.
Give reported IC50 value for `CN1c2ccccc2C(=O)NC12CCN(CCCC(=O)c1ccc(F)cc1)CC2`
> 100 µM

###

# System: CEM cells HIV-1 protection, formazan growth assay
# ASSAY OVERVIEW: NCI AIDS Antiviral Assay
# MEASUREMENT SETUP: measured here: growth of uninfected CEM cells
pIC50: −log10 of the molar value.
METRIC: pIC50

Reference set, count: 4
COc1ccc(/C=C2\N=C(NN)N=C2Cl)cc1: < 3.70
CC(=O)C1C(=O)C(=O)N(c2ccccc2)C1=O (stereo not given): < 3.70
CCCCOCCOC(=O)C1C(C=C(C)C)C1(C)C (stereo not given): < 3.70
CN(C)C=C1C(=O)NC(=O)NC1=O: < 3.70

Next item in the queue.
Give reported pIC50 value for CCN(CC)C(=O)COc1cc2c(O)c3c(O)c(C)c4c(c13)C(=O)C(C)(OC=CC(OC)C(C)C(OC(C)=O)C(C)C(O)C(C)C(O)C(C)C=CC=C(C)C(=O)N2)O4 (stereo not given)
< 4.00

###

# Tested on: CEM cells HIV-1 protection, formazan growth assay
# ASSAY OVERVIEW: NCI AIDS Antiviral Assay
# MEASUREMENT SETUP: measured here: growth of uninfected CEM cells
Item-by-item account of IC50
The figure you give is taken to be in µM; do not add the unit.

Reference set, count: 3
N/N=C(/c1ccccc1)c1cccc([N+](=O)[O-])c1: 166
COc1cc(NCc2ccc3nc(-c4ccccc4)c(N)nc3c2)cc(OC)c1OC: 49
O=C(c1ccccc1)c1ccc(SSc2ccc(C(=O)c3ccccc3)cc2[N+](=O)[O-])c([N+](=O)[O-])c1: 13.8

Give reported IC50 value for `COc1cnn(-c2ccccc2)c(=O)c1SCc1ccc(Cl)cc1`
30.9

Give reported IC50 value for O=c1[nH]c(=O)n(C2CC(O)C(CO)O2)cc1C#Cc1ccc(C(F)(F)F)cc1 (centres undefined)
91.2

Give reported IC50 value for `COC1=C(c2c[nH]c3ccc(CC=C(C)C)cc23)C(=O)C(OC)=C(c2c[nH]c3ccc(CC=C(C)C)cc23)C1=O`
2.24

Give reported IC50 value for `CCc1nnc2n1N=C(c1ccc(-c3ccccc3)cc1)CS2`
11.5

Give reported IC50 value for `COc1cc(/C=C2\SC(=S)N(/C=C3\C(=O)C=C(C)OC3=O)C2=O)cc(OC)c1OC`
18.2

Give reported IC50 value for `CC1=NN2C(c3ccc(C)cc3)=CSC2=NC(C)(C)C1`
141

Give reported IC50 value for `O=C(CCCN1CC=C(n2c(=O)[nH]c3ccccc32)CC1)c1ccc(F)cc1`
89.1

Give reported IC50 value for C=C1C(OC(C)=O)[C@@]23CC[C@@H]4C(C)(C(=O)OC)CCCC4(C)[C@@H]2CC[C@@H]1C3 (some centres undefined)
51.3

Give reported IC50 value for `CCCCSc1nc2c(=O)[nH][nH]c(=O)c2n1Cc1ccccc1`
158

Give reported IC50 value for `CCN(CC)c1nc(NC2CCCCC2)c2nc(N(CC)CC)nc(NC3CCCCC3)c2n1`
0.537

Give reported IC50 value for `CCN(CCCl)c1cc(C(=O)NCCCN(C)CCCNC(=O)c2cc(N(CC)CCCl)c([N+](=O)[O-])cc2[N+](=O)[O-])c([N+](=O)[O-])cc1[N+](=O)[O-]`
10.7

Give reported IC50 value for `Oc1ccc(-c2nc(-c3cccnc3)c(-c3ccc(Cl)cc3)[nH]2)cc1O`
13.8

Give reported IC50 value for `CCOC(=O)/C=C/C1(CCOC(C)=O)CCCCC1`
174

Give reported IC50 value for O=C(/C=C/c1ccc(O)c(O)c1)OC1CC(O)(C(=O)O)CC(O)C1O (centres undefined) (tested in a mixture with another compound)
81.3

Give reported IC50 value for O=C(Nc1ccc(C2=NCCN2)cc1)C1CCC(C(=O)Nc2ccc(C3=NCCN3)cc2)CC1 (centres undefined)
11
